target: T1, Human LILRB2 stably expressed on EL4 cells (EL4/LILRB2) (human, UniProt Q8N423 22-597)
T1 construct: also called EL4-LILRB2 cells; cell membrane human LILRB2
T1 sequence (Q8N423 22-597 limits assumed): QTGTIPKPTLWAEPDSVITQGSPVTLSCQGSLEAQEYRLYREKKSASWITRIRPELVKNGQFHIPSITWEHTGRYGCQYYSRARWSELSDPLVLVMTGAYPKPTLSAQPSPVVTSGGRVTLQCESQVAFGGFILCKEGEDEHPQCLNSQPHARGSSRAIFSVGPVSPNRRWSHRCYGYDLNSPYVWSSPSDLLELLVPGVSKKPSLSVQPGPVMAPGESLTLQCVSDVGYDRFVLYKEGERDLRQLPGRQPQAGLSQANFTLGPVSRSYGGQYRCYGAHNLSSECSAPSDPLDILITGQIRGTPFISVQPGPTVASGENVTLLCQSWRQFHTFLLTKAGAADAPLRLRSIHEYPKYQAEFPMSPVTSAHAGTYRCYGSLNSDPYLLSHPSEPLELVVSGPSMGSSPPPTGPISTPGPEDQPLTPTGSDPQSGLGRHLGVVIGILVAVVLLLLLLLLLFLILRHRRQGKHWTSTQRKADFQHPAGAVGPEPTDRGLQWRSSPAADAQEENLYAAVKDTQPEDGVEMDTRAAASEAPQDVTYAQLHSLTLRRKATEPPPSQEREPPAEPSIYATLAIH
assay-explanation: competitive FACS, blockade of HLA-G binding to LILRB2 on cells

binder | TOP Blocking (%)
hu043.01 (antibody, V domains shown, Humanized human IgG4 antibody with S228P in the constant region; also called hu043VH6 / hu043VL4) VH: QVQLVQSGAEVKKPGASVKVSCKASGYTFTSYWMYWVRQAPGQGLEWIGHINPSSGYTKYNQKFKDRATLTADTSTSTAYMELSSLRSEDTAVYYCARDPNWDNYWGQGTTVTVSS VL: DIVMTQSPSSLSASVGDRVSITCKASQDVSIAVAWYQQKPGKAPKLLIYSASYRYTGVPDRFSGSGSGTDFTFTISSLQPEDIATYYCQQHYSTPYTFGGGTKLEIK | 100
J-19 (antibody, V domains shown, Human IgG4 monoclonal antibody with S228P in the constant region, made according to WO 2019/126514 A2; also called benchmark antibody J-19) VH: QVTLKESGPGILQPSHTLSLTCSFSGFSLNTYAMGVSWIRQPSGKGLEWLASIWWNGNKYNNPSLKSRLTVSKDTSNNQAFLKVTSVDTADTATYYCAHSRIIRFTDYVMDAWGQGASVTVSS VL: DIQMTQSPASLSTFLGEPVTIECRASEDIYNDLAWYQQKPGKSPQLLIYNANSLHTGVPSRFSGSGSGTQYSLKINSLQSEDVASYFCQQYYDYPLTFGSGTKLEIK | 100
hu043.03 (antibody, V domains shown, Humanized human IgG4 antibody with S228P in the constant region; also called hu043VH8 / hu043VL4) VH: QVQLQQSGAEVKKPGASVKLSCKASGYTFTSYWMYWVRQRPGQGLEWIGHINPSSGYTKYNQKFKDRATLTADTSTSTAYMELSSLRSEDTAVYYCARDPNWDNYWGQGTTVTVSS VL: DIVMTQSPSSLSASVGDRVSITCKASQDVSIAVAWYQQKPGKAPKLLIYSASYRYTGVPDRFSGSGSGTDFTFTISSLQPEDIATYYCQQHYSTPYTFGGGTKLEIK | 100
hu043.05 (antibody, V domains shown, Humanized human IgG4 antibody with S228P in the constant region; also called hu043VH7 / hu043VL2) VH: QVQLVQSGAEVKKPGASVKVSCKASGYTFTSYWMYWVRQAPGQGLEWIGHINPSSGYTKYNQKFKDRVTMTADTSTSTVYMELSSLRSEDTAVYYCARDPNWDNYWGQGTTVTVSS VL: DIQMTQSPSSLSASVGDRVTITCKASQDVSIAVAWYQQKPGKAPKLLIYSASYRYTGVPSRFSGSGSGTDFTFTISSLQPEDIATYYCQQHYSTPYTFGGGTKLEIK | 100
043c (antibody, V domains shown, Human IgG4 chimeric antibody with S228P mutation at the Fc region; also called chimeric antibody 043c; parental antibody 043c) VH: QVQLQQSGAELAKPGASVKLSCKASGYTFTSYWMYWVKQRPGQGLEWIGHINPSSGYTKYNQKFKDKATLTADKSSSTAYMQLSSLTYEDSAVYYCARDPNWDNYWGQGTTLTVSS VL: DIVMTQSHKFMSTSVGDRVSITCKASQDVSIAVAWYQQKPGQSPKLLIYSASYRYTGVPDRFTGSGSGTDFTFTISSVQAEDLAVYYCQQHYSTPYTFGGGTKLEIK | 100
